Data provenance is patent US6787651B2.

Consider the following compounds; for each one, report its melting point.

Suppose we examine the compound COc1cccc(Cn2c(C(=O)O)c(-c3cccc(NC(=O)NC4CC4)c3)c3ccccc32)c1 [Example 294] ; what melting point value has been reported?
110 °C (dec.)

Suppose we examine the compound COc1ccc(Cc2c(C(=O)O)n(Cc3cccc(OCC4CC4)c3)c3ccccc23)cc1 [Example 297] ; what melting point value has been reported?
168 to 170 °C

Suppose we examine the compound COc1ccc(Cc2c(C(=O)O)n(CC3CC3)c3ccccc23)cc1 [Example 230] ; what melting point value has been reported?
162 to 163 °C

Suppose we examine the compound COc1cccc(Cn2c(C(=O)O)c(-c3ccc(C(C)(C)C)cc3)c3cccc(N(C)C(=O)N(C)C4CC4)c32)c1 [Example 293] ; what melting point value has been reported?
112 to 115 °C (dec.)

Suppose we examine the compound COc1ccc(-c2c(C(=O)NS(=O)(=O)c3ccc(Cl)cc3)n(Cc3cccc(C(F)(F)F)c3)c3ccccc23)cc1 [Example 359] ; what melting point value has been reported?
166 °C

Suppose we examine the compound CC(C)(C)c1ccc(-c2c(C(=O)O)n(Cc3cccc(OCC4CC4)c3)c3ccccc23)cc1 [Example 288] ; what melting point value has been reported?
120 °C

Suppose we examine the compound COc1cccc(Cn2c(C(=O)O)c(-c3ccc(OCC4CC4)cc3)c3cc(OCc4ccccc4)ccc32)c1 [Example 229] ; what melting point value has been reported?
185 to 187 °C

Suppose we examine the compound COc1cccc(Cn2c(C(=O)O)c(-c3cccc(NC(=O)C4CCCC4)c3)c3ccccc32)c1 [Example 327] ; what melting point value has been reported?
133 °C (dec.)

Suppose we examine the compound COc1ccc(-c2c(C(=O)O)n(Cc3cccc(OC)c3)c3ccc(C(C)=O)cc23)cc1 [Example 301] ; what melting point value has been reported?
190 °C (dec.)

Suppose we examine the compound COc1cccc(Cn2c(C(=O)O)c(-c3cccc(C(=O)NC4CC4)c3)c3ccccc32)c1 [Example 328] ; what melting point value has been reported?
204 °C

Suppose we examine the compound O=C(O)c1c(C#Cc2ccccc2)c2ccccc2n1Cc1cccc(C(F)(F)F)c1 [Example 244] ; what melting point value has been reported?
165 to 167 °C

Suppose we examine the compound COc1cccc(Cn2c(C(=O)O)c(-c3ccc(C(=O)NC4CC4)cc3)c3ccccc32)c1 [Example 323] ; what melting point value has been reported?
237 °C

Suppose we examine the compound COc1cccc(Cn2c(C(=O)O)c(CC3CC3)c3ccccc32)c1 [Example 265] ; what melting point value has been reported?
165 to 167 °C

Suppose we examine the compound COc1cccc(Cn2c(C(=O)O)c(-c3ccc(C(=O)NC4CCCC4)cc3)c3ccccc32)c1 [Example 324] ; what melting point value has been reported?
230 °C

Suppose we examine the compound CC(C)c1cccc(-c2c(C(=O)O)n(Cc3cccc(OCC4CC4)c3)c3ccccc23)c1 [Example 284] ; what melting point value has been reported?
204 °C

Suppose we examine the compound COc1cccc(Cn2c(C(=O)O)c(-c3cccc(OCC4CC4)c3)c3ccccc32)c1 [Example 345] ; what melting point value has been reported?
147 to 148 °C

Suppose we examine the compound COc1cccc(Cn2c(C(=O)O)c(-c3ccc(C(C)(C)C)cc3)c3cccc(NC(=O)NC4CC4)c32)c1 [Example 291] ; what melting point value has been reported?
168 °C (dec.)

Suppose we examine the compound COc1cccc(Cn2c(C(=O)O)c(-c3cccc(N(C)C(=O)C4CC4)c3)c3ccccc32)c1 [Example 295] ; what melting point value has been reported?
200 °C

Suppose we examine the compound O=C(O)c1c(C=C2CC2)c2ccccc2n1Cc1cccc(C(F)(F)F)c1 [Example 231] ; what melting point value has been reported?
148 to 150 °C

Suppose we examine the compound O=C(O)c1c(-c2ccco2)c2ccccc2n1Cc1cccc(C(F)(F)F)c1 [Example 237] ; what melting point value has been reported?
172 to 173 °C

Suppose we examine the compound COc1cccc(Cn2c(C(=O)O)c(-c3ccc(C(C)(C)C)cc3)c3cc(C4CCCC4)ccc32)c1 [Example 273] ; what melting point value has been reported?
192 to 193 °C

Suppose we examine the compound COc1cccc(Cn2c(C(=O)O)c(-c3ccc(C(C)(C)C)cc3)c3cc(NCC4CC4)ccc32)c1 [Example 335] ; what melting point value has been reported?
180 to 181 °C

Suppose we examine the compound CCOc1ccc(-c2c(C(=O)O)n(Cc3ccc(F)cc3)c3c(N(C)C(=O)C4CC4)cccc23)cc1 [Example 286] ; what melting point value has been reported?
128 °C

Suppose we examine the compound COc1cccc(Cn2c(C(=O)O)c(-c3ccc(C(C)(C)C)cc3)c3cc(NC(=O)C4CC4)ccc32)c1 [Example 268] ; what melting point value has been reported?
194 to 196 °C

Suppose we examine the compound CCOc1ccc(-c2c(C(=O)O)n(Cc3ccc(F)cc3)c3ccc(COCC4CC4)cc23)cc1 [Example 347] ; what melting point value has been reported?
171 to 173 °C

Suppose we examine the compound COc1cccc(Cn2c(C(=O)O)c(-c3ccc(C(C)(C)C)cc3)c3cc(N(C)C(=O)C4CC4)ccc32)c1 [Example 274] ; what melting point value has been reported?
219 to 222 °C

Suppose we examine the compound O=C(O)c1c(-c2cc3ccccc3o2)c2ccccc2n1Cc1cccc(C(F)(F)F)c1 [Example 235] ; what melting point value has been reported?
211 to 214 °C

Suppose we examine the compound COc1cccc(Cn2c(C(=O)O)c(-c3ccc(C(C)(C)C)cc3)c3cc4c(cc32)OCO4)c1 [Example 277] ; what melting point value has been reported?
179.1 to 179.7 °C

Suppose we examine the compound O=C(O)c1c(-c2cccc(OCC3CC3)c2)c2ccccc2n1Cc1ccc(F)cc1 [Example 339] ; what melting point value has been reported?
200 to 202 °C

Suppose we examine the compound CCOc1ccc(-c2c(C(=O)O)n(Cc3ccc(F)cc3)c3c(NC(=O)C4CC4)cccc23)cc1 [Example 285] ; what melting point value has been reported?
250 °C

Suppose we examine the compound COc1ccc(-c2c(C(=O)NS(=O)(=O)c3ccc(C)cc3)n(Cc3cccc(C(F)(F)F)c3)c3ccccc23)cc1 [Example 358] ; what melting point value has been reported?
162 °C
